- MEASURED_TARGET: Rhodesain (Trypanosoma brucei rhodesiense)
- Sequence (Q95PM0 whole entry): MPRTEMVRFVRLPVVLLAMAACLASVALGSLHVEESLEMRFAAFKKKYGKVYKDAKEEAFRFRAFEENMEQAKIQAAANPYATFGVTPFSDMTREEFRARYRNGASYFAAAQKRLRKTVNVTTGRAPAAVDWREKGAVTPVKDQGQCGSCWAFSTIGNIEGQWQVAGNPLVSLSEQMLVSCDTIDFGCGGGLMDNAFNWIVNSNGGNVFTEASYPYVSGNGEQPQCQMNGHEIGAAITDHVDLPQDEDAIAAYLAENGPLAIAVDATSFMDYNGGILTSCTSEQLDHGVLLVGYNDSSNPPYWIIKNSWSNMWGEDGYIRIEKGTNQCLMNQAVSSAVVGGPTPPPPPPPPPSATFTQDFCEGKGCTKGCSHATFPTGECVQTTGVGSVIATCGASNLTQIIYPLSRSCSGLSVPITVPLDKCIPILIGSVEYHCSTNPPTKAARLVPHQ
- EXPERIMENT_NOTES: Inhibition of Trypanosoma brucei rhodesiense recombinant rhodesain
Peptide text beside a SMILES is read from it.
METRIC_NAME: pKi
Remember the convention: pKi equals -log10 of concentration in molar.

COMPOUND	MEASURED_TARGET	METRIC_NAME	RESULT_VALUE
CC(C)[C@H](NC(=O)[C@@H](NC(=O)[C@@H](NC(=O)[C@H](CCC(N)=O)NC(=O)/C=C/C(=O)NCC(=O)NCC(=O)N[C@@H](Cc1ccccc1)C(=O)O)C1CCCCC1)C(C)C)C(N)=O (HELM PEPTIDE1{[O=C(/C=C/C(=O)[*:2])NCC(=O)NCC(=O)N[C@@H](Cc1ccccc1)C(=O)O].Q.[O=C([C@@H](N[*:1])C1CCCCC1)[*:2]].V.V.[am]}$$$$V2.0)	Rhodesain (Trypanosoma brucei rhodesiense)	pKi	7.10
CC(C)C[C@H](NC(=O)[C@H](CC(N)=O)NC(=O)/C=C/C(=O)NCC(=O)NCC(=O)N[C@@H](Cc1ccccc1)C(=O)O)C(=O)N[C@@H](CC(C)C)C(=O)N[C@H](C(N)=O)C(C)C (HELM PEPTIDE1{[O=C(/C=C/C(=O)[*:2])NCC(=O)NCC(=O)N[C@@H](Cc1ccccc1)C(=O)O].N.L.L.V.[am]}$$$$V2.0)	Rhodesain (Trypanosoma brucei rhodesiense)	pKi	5.57

Item: CC(=O)NC[C@H](NC(=O)/C=C/C(=O)NCC(=O)NCC(=O)N[C@@H](Cc1ccccc1)C(=O)O)C(=O)N[C@@H](CC(C)C)C(=O)N[C@@H](CC(C)C)C(=O)N[C@H](C(N)=O)C(C)C (HELM PEPTIDE1{[O=C(/C=C/C(=O)[*:2])NCC(=O)NCC(=O)N[C@@H](Cc1ccccc1)C(=O)O].[O=C([C@H](CN[*:3])N[*:1])[*:2]].L.L.V.[am]}|PEPTIDE2{[ac]}$PEPTIDE1,PEPTIDE2,2:R3-1:R2$$$V2.0) | pKi: 5.74

----------
- MEASURED_TARGET: Rhodesain (Trypanosoma brucei rhodesiense)
- EXPERIMENT_NOTES: Inhibition of Trypanosoma brucei rhodesiense recombinant rhodesain at 100 uM
Square brackets hold non-standard residues; d marks the D form. Peptide text beside a SMILES is read from it. * marks the point of attachment. Fumaroyl(GlyGlyPheOH) = O=C(/C=C/C(=O)*)NCC(=O)NCC(=O)N[C@@H](Cc1ccccc1)C(=O)O; Chg = N[C@H](C(=O)O)C1CCCCC1; Dap = NC[C@H](N)C(=O)O
This section presents compounds with their documented inhibition values.
Give just the number in %; leave the unit off.

COMPOUND	UNITS_SYMBOL	RESULT_VALUE
NCCCC(N)(C(=O)O)C(F)F (stereo not drawn)	%	31
CC(C)C[C@H](NC(=O)[C@H](Cc1ccccc1)NC(=O)[C@H](CC(N)=O)NC(=O)/C=C/C(=O)NCC(=O)NCC(=O)N[C@@H](Cc1ccccc1)C(=O)O)C(=O)N[C@H](C(N)=O)C(C)C (HELM PEPTIDE1{[O=C(/C=C/C(=O)[*:2])NCC(=O)NCC(=O)N[C@@H](Cc1ccccc1)C(=O)O].N.F.L.V.[am]}$$$$V2.0)	%	6
CC(C)[C@H](NC(=O)[C@@H](NC(=O)[C@@H](NC(=O)[C@H](CC(N)=O)NC(=O)/C=C/C(=O)NCC(=O)NCC(=O)N[C@@H](Cc1ccccc1)C(=O)O)C1CCCCC1)C(C)C)C(N)=O (HELM PEPTIDE1{[O=C(/C=C/C(=O)[*:2])NCC(=O)NCC(=O)N[C@@H](Cc1ccccc1)C(=O)O].N.[O=C([C@@H](N[*:1])C1CCCCC1)[*:2]].V.V.[am]}$$$$V2.0)	%	96
Cc1ccc(C(=O)Nc2ccc(S(=O)(=O)O)c3cc(S(=O)(=O)O)cc(S(=O)(=O)O)c23)cc1NC(=O)c1cccc(NC(=O)Nc2cccc(C(=O)Nc3cc(C(=O)Nc4ccc(S(=O)(=O)O)c5cc(S(=O)(=O)O)cc(S(=O)(=O)O)c45)ccc3C)c2)c1	%	32
CC(C)C[C@H](NC(=O)[C@H](C)NC(=O)/C=C/C(=O)N[C@@H](C)C(=O)NCC(=O)N[C@@H](Cc1ccccc1)C(=O)O)C(=O)N[C@@H](CC(C)C)C(=O)N[C@H](C(N)=O)C(C)C (HELM PEPTIDE1{[C[C@H](NC(=O)/C=C/C(=O)[*:2])C(=O)NCC(=O)N[C@@H](Cc1ccccc1)C(=O)O].A.L.L.V.[am]}$$$$V2.0)	%	96

Reported inhibition of CC(C)C[C@H](NC(=O)[C@H](CC(N)=O)NC(=O)/C=C/C(=O)NCC(=O)NCC(=O)N[C@@H](Cc1ccccc1)C(=O)O)C(=O)N[C@@H](C)C(=O)N[C@H](C(N)=O)C(C)C (HELM PEPTIDE1{[O=C(/C=C/C(=O)[*:2])NCC(=O)NCC(=O)N[C@@H](Cc1ccccc1)C(=O)O].N.L.A.V.[am]}$$$$V2.0) : 8

Lookup result for CC(=O)NC[C@H](NC(=O)/C=C/C(=O)NCC(=O)NCC(=O)N[C@@H](Cc1ccccc1)C(=O)O)C(=O)N[C@H](C(=O)N[C@@H](C)C(=O)N[C@H](C(N)=O)C(C)C)C1CCCCC1 ({Fumaroyl(GlyGlyPheOH)}-[Dap](Ac)[Chg]AV-NH2) ; measured inhibition: 95

Quick note, inhibition for CC(=O)NC[C@H](NC(=O)/C=C/C(=O)NCC(=O)NCC(=O)N[C@@H](Cc1ccccc1)C(=O)O)C(=O)N[C@@H](CC(C)C)C(=O)N[C@@H](CC(C)C)C(=O)N[C@H](C(N)=O)C(C)C (HELM PEPTIDE1{[O=C(/C=C/C(=O)[*:2])NCC(=O)NCC(=O)N[C@@H](Cc1ccccc1)C(=O)O].[O=C([C@H](CN[*:3])N[*:1])[*:2]].L.L.V.[am]}|PEPTIDE2{[ac]}$PEPTIDE1,PEPTIDE2,2:R3-1:R2$$$V2.0) landed at 87

inhibition recorded for this compound, CC(C)C[C@H](NC(=O)[C@H](CC(N)=O)NC(=O)/C=C/C(=O)NCC(=O)NCC(=O)N[C@@H](Cc1ccccc1)C(=O)O)C(=O)N[C@@H](CC(C)C)C(=O)N[C@H](C(N)=O)C(C)C (HELM PEPTIDE1{[O=C(/C=C/C(=O)[*:2])NCC(=O)NCC(=O)N[C@@H](Cc1ccccc1)C(=O)O].N.L.L.V.[am]}$$$$V2.0) , is 63

Given item CC(C)[C@H](NC(=O)[C@H](C)NC(=O)[C@@H](NC(=O)[C@H](CC(N)=O)NC(=O)/C=C/C(=O)NCC(=O)NCC(=O)N[C@@H](Cc1ccccc1)C(=O)O)C1CCCCC1)C(N)=O (HELM PEPTIDE1{[O=C(/C=C/C(=O)[*:2])NCC(=O)NCC(=O)N[C@@H](Cc1ccccc1)C(=O)O].N.[O=C([C@@H](N[*:1])C1CCCCC1)[*:2]].A.V.[am]}$$$$V2.0) , the value recorded as its inhibition is 98

Input CC(C)[C@H](NC(=O)[C@@H](NC(=O)[C@@H](NC(=O)[C@H](CCC(N)=O)NC(=O)/C=C/C(=O)NCC(=O)NCC(=O)N[C@@H](Cc1ccccc1)C(=O)O)C1CCCCC1)C(C)C)C(N)=O (HELM PEPTIDE1{[O=C(/C=C/C(=O)[*:2])NCC(=O)NCC(=O)N[C@@H](Cc1ccccc1)C(=O)O].Q.[O=C([C@@H](N[*:1])C1CCCCC1)[*:2]].V.V.[am]}$$$$V2.0) . Output inhibition: 99

// field: inhibition; key: CC(C)C[C@H](NC(=O)[C@H](Cc1ccccc1)NC(=O)/C=C/C(=O)NCC(=O)NCC(=O)N[C@@H](Cc1ccccc1)C(=O)O)C(=O)N[C@@H](CC(C)C)C(=O)N[C@H](C(N)=O)C(C)C (HELM PEPTIDE1{[O=C(/C=C/C(=O)[*:2])NCC(=O)NCC(=O)N[C@@H](Cc1ccccc1)C(=O)O].F.L.L.V.[am]}$$$$V2.0) ; value = 68

Per the records, this compound ( CC(C)C[C@H](NC(=O)[C@H](CCC(N)=O)NC(=O)/C=C/C(=O)N[C@@H](C)C(=O)NCC(=O)N[C@@H](Cc1ccccc1)C(=O)O)C(=O)N[C@H](C(=O)N[C@H](C(N)=O)C(C)C)C(C)C (HELM PEPTIDE1{[C[C@H](NC(=O)/C=C/C(=O)[*:2])C(=O)NCC(=O)N[C@@H](Cc1ccccc1)C(=O)O].Q.L.V.V.[am]}$$$$V2.0) ) has inhibition equal to 37
